Some compounds, each annotated with its measured viability at 28.5 h, 10 µM.
assay comment: in vitro
condition details: human, hela cells, % viability

compound: Cc1cnc2c(c1)cc(C1CCOCC1)n2CC(=O)N(C)C [CBK284754]
viability at 28.5 h, 10 µM: 102%
--
compound: Cc1cccc(-c2noc([C@@H]3Cc4[nH]cnc4CN3C(=O)NC(C)C)n2)c1 [CBK288962]
viability at 28.5 h, 10 µM: 97.6%
--
compound: O=C(Nc1cccc(I)c1)c1ccc(Oc2ccc(C(=O)Nc3cccc(I)c3)cc2)cc1 [CBK261201]
viability at 28.5 h, 10 µM: 92.6%
--
compound: O=C(CSc1nnc2ccc(-c3ccccc3)nn12)NCc1ccccc1 [CBK287677]
viability at 28.5 h, 10 µM: 67.6%
--
compound: Cc1ccccc1-n1ccn(C(=O)CCCOc2ccc(Cl)cc2)c1=O [CBK106573]
viability at 28.5 h, 10 µM: 88.5%
--
compound: O=C(NCCc1ccccc1)[C@@H]1C=CCN1C(=O)C1CC1 [CBK284315]
viability at 28.5 h, 10 µM: 93.6%
--
compound: Cc1nc(S)nc(O)c1Cc1ccc(C(=O)O)o1 [CBK266284]
viability at 28.5 h, 10 µM: 104%
--
compound: CCCCC(c1cccnc1)N(C)C(=O)c1cc(CC)[nH]c(=O)c1 (stereo not drawn) [CBK307216]
viability at 28.5 h, 10 µM: 107%
--
compound: CSCC(CSC)OC(=O)Nc1ccc(Cl)cc1 [CBK086154]
viability at 28.5 h, 10 µM: 93.9%

====

Some compounds, each annotated with its measured viability at 28.5 h, 10 µM.
assay comment: in vitro
condition details: human, hela cells, % viability

compound: COc1ccc(C(CC(=O)O)NC(=O)c2ccccc2)cc1 (stereo not drawn)
measurement units: %
viability at 28.5 h, 10 µM: 89.3

compound: O=S(=O)(c1ccccc1)N(CC(F)(F)F)c1ccc(C(O)(C(F)(F)F)C(F)(F)F)cc1
measurement units: %
viability at 28.5 h, 10 µM: 121

compound: O=C(O)CSc1nnc(-c2ccc3c(c2)OCO3)n1-c1ccccc1
measurement units: %
viability at 28.5 h, 10 µM: 105

compound: COc1ccccc1N1C(=O)CC(N2CCC(C(N)=O)(N3CCCCC3)CC2)C1=O (stereo not drawn)
measurement units: %
viability at 28.5 h, 10 µM: 84.3

compound: Cc1nn(-c2ccccc2)c(O)c1/C=N/c1ccccc1Sc1c(C)n[nH]c1C
measurement units: %
viability at 28.5 h, 10 µM: 89.1

compound: Cc1ccc2[nH]c(SC(C)C(=O)N3CCOCC3)nc2c1 (stereo not drawn)
measurement units: %
viability at 28.5 h, 10 µM: 96

compound: Cc1cn2nc(N3CCN(S(=O)(=O)c4ccccc4[N+](=O)[O-])CC3)sc2n1
measurement units: %
viability at 28.5 h, 10 µM: 111

compound: O=C(Nc1ccncc1)C1(c2ccccc2)CCCC1
measurement units: %
viability at 28.5 h, 10 µM: 111

compound: O=C(O)c1c2c(nc3ccccc13)C(=Cc1ccc3c(c1)OCCO3)CC2
measurement units: %
viability at 28.5 h, 10 µM: 96.3

====

assay comment: in vitro
condition details: human, hela cells, % viability

compound: O=c1cc(O)c2ccccc2n1Cc1ccccc1Cl
viability at 28.5 h, 10 µM: 93.4%

compound: CC(=O)N1CCC(NC[C@H]2C[C@@H]3CCN2C[C@@H]3c2cc(C3CCCC3)nc(C)n2)CC1
viability at 28.5 h, 10 µM: 84.3%

compound: COc1cc2c(cc1OC)CN(Cc1ccc(OCc3ccccc3)c(OC)c1)CC2
viability at 28.5 h, 10 µM: 93%

compound: Cc1nc(SCCN2C(=O)c3ccccc3S2(=O)=O)c2ccccc2n1
viability at 28.5 h, 10 µM: 90%

compound: COC(=O)NC(O)C(=O)c1cccs1 (stereo not drawn)
viability at 28.5 h, 10 µM: 93.8%

compound: Cc1ccc(O)c(NC(=O)Cn2nc([N+](=O)[O-])c(Br)c2C)c1
viability at 28.5 h, 10 µM: 92.2%

compound: Cn1ncc2c(=O)n(Cc3noc(-c4ccsc4)n3)cnc21
viability at 28.5 h, 10 µM: 99%

compound: Clc1ccccc1-c1cn2ccnc2c(NCc2cccnc2)n1
viability at 28.5 h, 10 µM: 94.5%

compound: O=C(O)COc1ccccc1/C=N/n1c(S)nnc1-c1cccnc1
viability at 28.5 h, 10 µM: 89.9%

====

Some compounds, each annotated with its measured viability at 28.5 h, 10 µM.
assay comment: in vitro
condition details: human, hela cells, % viability
property: viability at 28.5 h, 10 µM

compound: O=C(NC1CCCCC1)N[C@H]1[C@H](O)[C@@H](N2CCN(c3ccccc3)CC2)[C@@H]2OC[C@H]1O2
value measured: 95%

compound: Cc1c(-c2ccnc(N3CCOCC3)n2)cnc2nc(-c3ccncc3)nn12
value measured: 98.6%

compound: CC(=O)c1ccc(-c2ccc(/C=C\c3[nH]c(=O)[nH]c(=O)c3[N+](=O)[O-])o2)cc1
value measured: 90.7%

compound: Nc1cccc(Oc2ccc(C(c3ccc(Oc4cccc(N)c4)cc3)(C(F)(F)F)C(F)(F)F)cc2)c1
value measured: 103%

compound: O=C(CN1CCCC1)N1CCC(c2cccc(Cc3ccc(C(F)(F)F)cc3)n2)CC1
value measured: 106%

compound: CC(=O)Nc1nc2ccc(S(C)(=O)=O)cc2s1
value measured: 110%

compound: CCCn1cc(NC(=O)NC(C)(CC)CO)ccc1=O (stereo not shown)
value measured: 88.7%

compound: COCCNc1nc2c(c(N3CCC(C#N)CC3)n1)CCNCC2
value measured: 86.6%

compound: Fc1cccc(-c2c[nH]nc2C2CCOCC2)c1
value measured: 91%

compound: OC(CNCc1cccs1)COc1cccc2c1CCCC2 (stereo not shown)
value measured: 96.1%

compound: CCCn1c(NC(=O)C2CCCN2S(=O)(=O)CC)nc2ccccc21 (stereo not shown)
value measured: 96.8%

compound: C[C@@H]1CN2CCCC2CN1Cc1cc(F)cc(F)c1 (stereo partly shown)
value measured: 96.1%

compound: COc1ccc(-n2cnnn2)cc1
value measured: 99%

compound: O=S(=O)(c1ccc(Cl)cc1)N1CCN(c2ccccc2)CC1
value measured: 100%

compound: CN(C)CCCOC(=O)c1cccnc1Cl
value measured: 111%

compound: CC(C)(C)OC(=O)NNC(=S)Nc1ccc(S(N)(=O)=O)cc1
value measured: 100%

compound: O=C(NCC1COc2ccccc2O1)c1ccc(-c2ccc(OC(F)(F)F)cc2)nc1 (stereo not shown)
value measured: 88.3%

compound: COCC(=O)Nc1cc(OC)c(Cl)cc1OC
value measured: 103%

compound: COc1cc(C(=O)NC(C)C(=O)NN)cc(OC)c1OC (stereo not shown)
value measured: 106%

compound: Oc1c(Cl)cc(Cl)cc1/C=N/c1ccc(-c2nc3ccc(/N=C/c4cc(Cl)cc(Cl)c4O)cc3[nH]2)cc1
value measured: 93.4%

compound: Cc1ccc(-c2cc(C(=O)N(C)CC3(C)COC3)[nH]n2)cc1
value measured: 90.9%

compound: CC(Oc1ccc(-c2ccccc2)cc1)C(=O)Nc1ccc(S(N)(=O)=O)cc1 (stereo not shown)
value measured: 87.2%

compound: Cc1ccc(S(=O)(=O)NCCOc2ccccc2)c(C)c1NS(C)(=O)=O
value measured: 92.9%

compound: Cc1ccc(C(=O)O)cc1NC(=O)C(=O)NCC(c1ccccc1)N1CCN(C)CC1 (stereo not shown)
value measured: 92.4%

compound: COc1ccc(-n2nc3cc(C)c(NC(=O)c4ccc(-c5ccc([N+](=O)[O-])cc5OC)o4)cc3n2)cc1
value measured: 99.3%

compound: O=C(CSc1nnc(Cc2ccccc2)n1-c1ccc(Cl)cc1)Nc1cc(Cl)ccc1O
value measured: 99.9%

compound: CC(C)(N)CN(Cc1ccccc1)C(=O)/C=C/c1ccccc1 [CBK013891T]
value measured: 90.8%

compound: O=C(CN1CC(O)CC1c1cccc(C(F)(F)F)c1)NCc1cccs1 (stereo not shown)
value measured: 82.6%

compound: COc1ccc(C(C)C)cc1-c1cncc(Nc2ccc(Cl)cc2)n1
value measured: 108%

compound: CC(=O)c1c(-c2cccc(C(=O)N(C)C3CCN(C)C3)c2)cnn1C (stereo not shown)
value measured: 106%

compound: O=C(Nc1nnc(-c2cccs2)o1)c1ccc(Cl)cc1
value measured: 96.4%

compound: CC(=O)Nc1c(Nc2ccccc2)c2ccccc2oc1=O
value measured: 88.1%

compound: c1ccc(COc2nccnc2-c2ccccc2)cc1
value measured: 92.2%

compound: COc1ccc2[nH]c(C(=O)N3CCn4nc(CO)cc4C3)c(C)c2c1
value measured: 106%

compound: O=[N+]([O-])c1ccc2c(c1)C(N1CCOCC1)/C(=C/COc1ccc3ccccc3c1Br)O2 (stereo not shown)
value measured: 97.1%

compound: CC(=O)N1CCCC(c2cc3cccnc3n2CC(=O)N(C)C)C1 (stereo not shown)
value measured: 106%

compound: N#Cc1ccccc1COC(=O)c1cc(-c2ccc(/C=C/c3[nH]c(=O)[nH]c(=O)c3[N+](=O)[O-])o2)ccc1Cl
value measured: 111%

Where do the numbers come from? From paper PMC12040169.
